Origin of values: paper PMC3575545

Biological target: SRP (Ffh bound to 4.5 S RNA) with DACM-labeled Ffh Cys235
Test: FRET or BRET
pKd: −log10 of the molar value.
endpointLabel: pKd

substance="BODIPY-FL-labeled FtsY Cys487 (full-length FtsY) (from UniProt P10121 1-497) (receptor)" experimentalsystem="SRP (Ffh bound to 4.5 S RNA) with DACM-labeled Ffh Cys235" endpointlabel=pKd recordedmeasurement=6.79
